Numbers sourced from paper PMC3390782.

Form field: MIC (one value per entry).
tested on: E. coli BL21 (DE3); test: MIC, antibacterial activity; type: cell-based; settings: strain M, Gram-negative
Measure Name: MIC (µg/mL)

CCCCCCCCCCCCS(=O)(=O)CC1OC(OC2C(N)CC(N)C(OC3OC(CN)C(O)CC3N)C2O)C(O)C(N)C1O (stereo not drawn) [6d] :: 75
CCCCCCCCCCSCC1OC(OC2C(N)CC(N)C(OC3OC(CN)C(O)CC3N)C2O)C(O)C(N)C1O (stereo not drawn) [4c] :: 75
CCCCCCCCCCCCCCS(=O)(=O)CC1OC(OC2C(N)CC(N)C(OC3OC(CN)C(O)CC3N)C2O)C(O)C(N)C1O (stereo not drawn) [6e] :: 18.8
CCCCCCCCCCCCSCC1OC(OC2C(N)CC(N)C(OC3OC(CN)C(O)CC3N)C2O)C(O)C(N)C1O (stereo not drawn) [4d] :: 18.8
CCCCCCCCCCCCCCSC[C@H]1O[C@H](O[C@@H]2[C@@H](O)[C@H](O[C@H]3O[C@H](CN)[C@@H](O)C[C@H]3N)[C@@H](N)C[C@H]2N)[C@H](O)[C@@H](N)[C@@H]1O [4e] :: 4.7

----------
system: E. coli BL21 (DE3) with AAC(6')/APH(2”)-pET22b; assay: MIC, antibacterial activity; assay type: cell-based; conditions: strain O, Gram-negative
Measure Name: MIC

NC[C@H]1O[C@H](O[C@H]2[C@H](O)[C@@H](O[C@H]3O[C@H](CO)[C@@H](O)[C@H](N)[C@H]3O)[C@H](N)C[C@@H]2N)[C@H](N)C[C@@H]1O [TOB, tobramycin, reference compound] :: >150 µg/mL
CCCCCCCCCCCCCCSC[C@H]1O[C@H](O[C@@H]2[C@@H](O)[C@H](O[C@H]3O[C@H](CN)[C@@H](O)C[C@H]3N)[C@@H](N)C[C@H]2N)[C@H](O)[C@@H](N)[C@@H]1O [4e] :: 4.7 µg/mL
CCCCCCCCCCCCS(=O)(=O)CC1OC(OC2C(N)CC(N)C(OC3OC(CN)C(O)CC3N)C2O)C(O)C(N)C1O (stereo not shown) [6d] :: >150 µg/mL
CCCCCCCCSCC1OC(OC2C(N)CC(N)C(OC3OC(CN)C(O)CC3N)C2O)C(O)C(N)C1O (stereo not shown) [4b] :: >150 µg/mL
